- measurement-protocol: Half life in African green monkey at lung-deposited dose of 5.9 mg/kg, IT measured after 24 hrs by LC-MS/MS analysis
- Assay type: ADME, organism-based
- condition-context: chlorocebus aethiops, in vivo
recorded-endpoint: half-life (h)
Field format: number, assumed h, no unit text.

Qu. Please supply the value of reported half-life for the item `COC(=O)[C@H](C)N[P@](=O)(OC[C@@]1(C#N)O[C@@H](c2ccc3c(N)ncnn23)[C@H](OC(=O)C(C)C)[C@@H]1OC(=O)C(C)C)Oc1ccccc1`
Ans. 7.01

----------
# maps each entry to its CC50 at 120 h
- measurement-protocol: Cytotoxicity against human MT4 cells incubated for 5 days by Cell Titer Glo assay
- Type: toxicity, cell-based
- condition-context: time 5 day
Field format: number, assumed µM, no unit text.

Qu. Please supply the value of reported CC50 at 120 h for the item `COC(=O)[C@H](C)N[P@](=O)(OC[C@@]1(C#N)O[C@@H](c2ccc3c(N)ncnn23)[C@H](OC(=O)C(C)C)[C@@H]1OC(=O)C(C)C)Oc1ccccc1`
Ans. 3.24

Qu. Please supply the value of reported CC50 at 120 h for the item `CCCOC(=O)[C@H](C)N[P@](=O)(OC[C@@]1(C#N)O[C@@H](c2ccc3c(N)ncnn23)[C@H](OC(=O)CC)[C@@H]1OC(=O)CC)Oc1ccccc1`
Ans. 7.65

Qu. Please supply the value of reported CC50 at 120 h for the item `CCCOC(=O)[C@H](C)N[P@](=O)(OC[C@@]1(C#N)O[C@@H](c2ccc3c(N)ncnn23)[C@H](O)[C@@H]1O)Oc1ccccc1`
Ans. 10.3

Qu. Please supply the value of reported CC50 at 120 h for the item `CCC(=O)O[C@H]1[C@H](c2ccc3c(N)ncnn23)O[C@](C#N)(CO[P@@](=O)(N[C@@H](C)C(=O)OC2CCCCC2)Oc2ccccc2)[C@H]1OC(=O)CC`
Ans. 17.1
